TESTED_ON: Estrogen receptor (Homo sapiens)
Sequence (P03372 whole entry): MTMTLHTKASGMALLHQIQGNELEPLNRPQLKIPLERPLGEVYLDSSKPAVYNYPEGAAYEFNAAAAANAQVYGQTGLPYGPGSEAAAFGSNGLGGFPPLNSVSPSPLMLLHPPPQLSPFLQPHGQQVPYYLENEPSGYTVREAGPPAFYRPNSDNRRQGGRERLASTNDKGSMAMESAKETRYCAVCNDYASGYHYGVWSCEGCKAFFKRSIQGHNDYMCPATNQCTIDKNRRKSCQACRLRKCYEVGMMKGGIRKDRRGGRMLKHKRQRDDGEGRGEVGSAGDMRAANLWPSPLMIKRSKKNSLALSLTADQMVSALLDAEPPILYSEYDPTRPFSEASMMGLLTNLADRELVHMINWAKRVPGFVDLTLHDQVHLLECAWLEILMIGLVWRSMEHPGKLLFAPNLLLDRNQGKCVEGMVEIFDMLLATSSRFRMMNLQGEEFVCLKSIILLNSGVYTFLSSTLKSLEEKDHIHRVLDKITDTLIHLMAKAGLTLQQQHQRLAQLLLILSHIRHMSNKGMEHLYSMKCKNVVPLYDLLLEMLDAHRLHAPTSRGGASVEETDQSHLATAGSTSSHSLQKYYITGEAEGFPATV
OUTCOME_MEASURE: IC50

Oc1cccc([C@H]2Sc3cc(O)ccc3O[C@H]2c2ccc(OCCN3CCCC3)cc2)c1
0.9 nM
Oc1ccc([C@@H]2Sc3ccc(O)cc3O[C@@H]2c2ccc(OCCN3CCCCC3)cc2)cc1
1.8 nM
Oc1ccc([C@@H]2Sc3cc(O)c(Cl)cc3O[C@@H]2c2ccc(OCCN3CCCCC3)cc2)cc1
5.4 nM
CC1CCCC(C)N1CCOc1ccc([C@@H]2Oc3ccc(O)cc3S[C@@H]2c2cccc(O)c2)cc1 (some centres undefined)
3.4 nM
Cc1c(O)ccc2c1O[C@H](c1ccc(OCCN3CCCCC3)cc1)[C@H](c1ccc(O)cc1)S2
1.2 nM

Q. Please look at this compound and report its IC50: Cc1cc(O)cc2c1S[C@@H](c1ccc(O)cc1)[C@@H](c1ccc(OCCN3CCCCC3)cc1)O2
A. 2 nM

Q. Name the recorded IC50 of the item Oc1ccc2c(c1)SC(c1ccccc1)C(c1ccc(OCCN3CCCCC3)cc1)O2 (centres undefined) in your answer.
A. 11.9 nM

Q. Answer with the recorded IC50 of CN(C)CCOc1ccc([C@@H]2Oc3ccc(O)cc3S[C@@H]2c2cccc(O)c2)cc1 only.
A. 1.4 nM

Q. Note down IC50 recorded for Oc1ccc([C@@H]2Sc3cc(Cl)c(O)cc3O[C@@H]2c2ccc(OCCN3CCCCC3)cc2)cc1
A. 23.1 nM

* * *

TESTED_ON: Estrogen receptor (Homo sapiens)
ASSAY_OVERVIEW: Potency in cellular transactivation assay utilizing HEK293 cells stably co-transfected with human estrogen receptor alpha and the alkaline phosphatase reporter gene.
Format: functional, cell-based
OUTCOME_MEASURE: pIC50
Note on pIC50: it is the negative log10 of concentration, concentration in mol/L.

Study these solved cases before continuing.
CC1CCN(CCOc2ccc([C@@H]3Oc4ccc(O)cc4S[C@@H]3c3cccc(O)c3)cc2)CC1
8.40
CN(C)CCOc1ccc([C@@H]2Oc3ccc(O)cc3S[C@@H]2c2cccc(O)c2)cc1
8.64
Oc1ccc([C@@H]2Sc3c(ccc(O)c3F)O[C@@H]2c2ccc(OCCN3CCCCC3)cc2)cc1
8.60
Oc1cccc([C@H]2Sc3cc(O)ccc3O[C@H]2c2ccc(OCCNC3CCCCCC3)cc2)c1
8.46
CCc1cc(O)cc2c1S[C@@H](c1ccc(O)cc1)[C@@H](c1ccc(OCCN3CCCCC3)cc1)O2
6.47
Oc1ccc([C@@H]2Sc3cc(O)c(Cl)cc3O[C@@H]2c2ccc(OCCN3CCCCC3)cc2)cc1
7.83
Oc1ccc([C@@H]2Sc3cc(Cl)c(O)cc3O[C@@H]2c2ccc(OCCN3CCCCC3)cc2)cc1
7.21
Oc1ccc([C@@H]2Sc3ccc(O)cc3O[C@@H]2c2ccc(OCCN3CCCCC3)cc2)cc1
8.30

Q. Supply reported pIC50 belonging to this compound: Oc1cccc(C2Sc3cc(O)ccc3OC2c2ccc(OCCN3CCCCC3)cc2)c1 (centres undefined)
A. 8.44

* * *

TESTED_ON: Estrogen receptor (Rattus norvegicus) (UniProt P06211+Q62986)
COND: at 1 mg/kg
Description: Anti-estrogen effects in rat (uterine weight) following 1 mg/kg s.c.
Attribute: Antagonism
Use % as the unit, but write only the number.

Check out these entries, answers already filled in.
Oc1ccc([C@@H]2Sc3c(ccc(O)c3F)O[C@@H]2c2ccc(OCCN3CCCCC3)cc2)cc1
76
Oc1ccc([C@@H]2Sc3c(ccc(O)c3Cl)O[C@@H]2c2ccc(OCCN3CCCCC3)cc2)cc1
67

Note: attention shifts to another entry.
Q. Fill in: Antagonism on Estrogen receptor (Rattus norvegicus) (UniProt P06211+Q62986), entry Oc1cccc(C2Sc3cc(O)ccc3OC2c2ccc(OCCN3CCCCC3)cc2)c1 (stereo not given)
A. 90

* * *

pIC50, Estrogen receptor (Homo sapiens, UniProt P03372): measured values
By convention, pIC50 is the negative base-10 log of a molar concentration.

CCc1cc(O)cc2c1S[C@@H](c1ccc(O)cc1)[C@@H](c1ccc(OCCN3CCCCC3)cc1)O2
7.27
CC1CCN(CCOc2ccc([C@@H]3Oc4ccc(O)cc4S[C@@H]3c3cccc(O)c3)cc2)CC1
9.10
Oc1ccc([C@@H]2Sc3c(ccc(O)c3F)O[C@@H]2c2ccc(OCCN3CCCCC3)cc2)cc1
9.10

Q. Recall the reported pIC50 of Oc1ccc([C@@H]2Sc3c(Cl)cc(O)cc3O[C@@H]2c2ccc(OCCN3CCCCC3)cc2)cc1 on Estrogen receptor (Homo sapiens, UniProt P03372) and write it down.
A. 9.29

Q. Write down the reported pIC50 (system: Estrogen receptor (Homo sapiens, UniProt P03372)) of Oc1ccc([C@@H]2Sc3cc(O)cc(Cl)c3O[C@@H]2c2ccc(OCCN3CCCCC3)cc2)cc1
A. 8.28

* * *

TESTED_ON: Estrogen receptor (Homo sapiens, UniProt P03372)
ASSAY_OVERVIEW: Potency in cellular transactivation assay utilizing HEK293 cells stably co-transfected with human estrogen receptor alpha and the alkaline phosphatase reporter gene.
Type: functional, cell-based
OUTCOME_MEASURE: IC50 (nM)
Write the answer as a number in nM, unit excluded.

Known IC50 results, listed for orientation:
Oc1ccc([C@@H]2Sc3c(F)cc(O)cc3O[C@@H]2c2ccc(OCCN3CCCCC3)cc2)cc1
6.1
Oc1cccc([C@H]2Sc3cc(O)ccc3O[C@H]2c2ccc(OCCN3CCCCC3)cc2)c1
5.4

Kindly consider the entry below.
Q. Please list IC50 recorded for the compound Oc1cccc([C@H]2Sc3cc(O)ccc3O[C@H]2c2ccc(OCCN3CCOCC3)cc2)c1
A. 4.7

* * *

TESTED_ON: Estrogen receptor beta (Homo sapiens, UniProt Q92731)
Sequence (Q92731 whole entry): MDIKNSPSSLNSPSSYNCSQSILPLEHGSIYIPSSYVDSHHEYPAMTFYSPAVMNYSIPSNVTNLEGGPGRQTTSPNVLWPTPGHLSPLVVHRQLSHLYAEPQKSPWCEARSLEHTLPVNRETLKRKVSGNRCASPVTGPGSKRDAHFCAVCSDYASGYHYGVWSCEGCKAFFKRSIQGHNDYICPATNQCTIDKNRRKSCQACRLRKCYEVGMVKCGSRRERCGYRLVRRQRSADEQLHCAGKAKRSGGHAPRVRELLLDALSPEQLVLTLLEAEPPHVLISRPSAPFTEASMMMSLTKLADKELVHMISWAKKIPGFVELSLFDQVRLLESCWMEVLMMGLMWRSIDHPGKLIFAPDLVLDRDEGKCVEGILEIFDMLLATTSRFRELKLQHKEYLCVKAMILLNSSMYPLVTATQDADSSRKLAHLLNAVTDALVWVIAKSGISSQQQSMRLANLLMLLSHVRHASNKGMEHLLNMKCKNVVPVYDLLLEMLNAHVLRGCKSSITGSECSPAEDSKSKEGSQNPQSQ
ASSAY_OVERVIEW: Potency in cellular transactivation assay utilizing HEK293 cells stably co-transfected with human estrogen receptor beta and the alkaline phosphatase reporter gene
Format: functional, cell-based
OUTCOME_MEASURE: log10(IC50) (log10 of the value in nM)
A difference of one corresponds to tenfold IC50; all values are log10 with IC50 in nM.

These solved cases illustrate the format of a correct answer.
Cc1c(O)ccc2c1O[C@H](c1ccc(OCCN3CCCCC3)cc1)[C@H](c1ccc(O)cc1)S2
1.83
Oc1ccc([C@@H]2Sc3ccc(O)cc3O[C@@H]2c2ccc(OCCN3CCCCC3)cc2)cc1
2.38
CC1CCN(CCOc2ccc([C@@H]3Oc4ccc(O)cc4S[C@@H]3c3cccc(O)c3)cc2)CC1
2.12
Oc1cccc([C@H]2Sc3cc(O)ccc3O[C@H]2c2ccc(OCCN3CCOCC3)cc2)c1
1.81
CCc1cc(O)cc2c1S[C@@H](c1ccc(O)cc1)[C@@H](c1ccc(OCCN3CCCCC3)cc1)O2
3.16
Oc1cccc([C@H]2Sc3cc(O)ccc3O[C@H]2c2ccc(OCCN3CCCC3)cc2)c1
1.60
Oc1cccc([C@H]2Sc3cc(O)ccc3O[C@H]2c2ccc(OCCNC3CCCCCC3)cc2)c1
1.83
Oc1ccc([C@@H]2Sc3c(ccc(O)c3F)O[C@@H]2c2ccc(OCCN3CCCCC3)cc2)cc1
2.25
Oc1ccc2c(c1)SC(c1ccc(F)cc1)C(c1ccc(OCCN3CCCCC3)cc1)O2 (stereo not given)
3.19
Oc1ccc([C@@H]2Sc3c(Cl)cc(O)cc3O[C@@H]2c2ccc(OCCN3CCCCC3)cc2)cc1
2.08

Q. Using known records, supply log10(IC50) for Oc1cccc([C@H]2Sc3cc(O)ccc3O[C@H]2c2ccc(OCCN3CCCCC3)cc2)c1
A. 2.20

Q. Answer with the recorded log10(IC50) for the compound listed here: CN(C)CCOc1ccc([C@@H]2Oc3ccc(O)cc3S[C@@H]2c2cccc(O)c2)cc1
A. 0.86

Q. Fill in log10(IC50) for record Oc1ccc([C@@H]2Sc3c(ccc(O)c3Cl)O[C@@H]2c2ccc(OCCN3CCCCC3)cc2)cc1
A. 1.81

Q. Provide one value: measured log10(IC50) of Oc1ccc([C@@H]2Sc3c(F)cc(O)cc3O[C@@H]2c2ccc(OCCN3CCCCC3)cc2)cc1
A. 2.71
